For each of the compounds below, state its IC50.
# Test system: L. mexicana promastigotes
# assay_remarks: Metabolic inhibition of Leishmania mexicana promastigotes, fluorometric analysis with resazurin
# Type: cell-based
# condition_set: Leishmania mexicana, 48 h, read-out: L. mexicana Promastigotes IC50, promastigotes, 24 h + 24 h resazurin, 27 °C; confidence interval (Probit) in parentheses; triplicate
Output spec: scalar in µg/mL, unitless text.

Quick one: IC50 of CCOc1ccc(C2=NCCN2)cc1 [compound 23] ?
7.62

Quick one: IC50 of CCCCCCCCOc1ccc(-c2ncc[nH]2)cc1 [compound 35, 8-Octyloxyphenyl-2-imidazole] ?
2.69

Quick one: IC50 of COc1ccc(C2=NCCN2)cc1 [compound 22] ?
16

---

observed_property: melting point

Quick one: melting point of "CCCCCCCCOc1ccc(C2=NCCN2)cc1" ?
102 to 104 °C

Quick one: melting point of "CCOc1ccc(C2=NCCN2)cc1" ?
180 to 182 °C

Quick one: melting point of "CCCCCCCCOc1ccc(-c2ncc[nH]2)cc1" ?
117 to 119 °C

Quick one: melting point of "CCCCCCOc1ccc(C2=NCCN2)cc1" ?
133 to 135 °C

Quick one: melting point of "CCCCCCOc1ccc([C@@H](O)[C@@H](O)c2ccc(OCCCCCC)cc2)cc1" ?
122 to 123 °C

Quick one: melting point of "CCCCCCCCCOc1ccc(C2=NCCN2)cc1" ?
103 to 105 °C

Quick one: melting point of "O=c1[nH]c2ccccc2nc1CBr" ?
224 to 226 °C

Quick one: melting point of "CCCCCCOc1ccc(-c2ncc[nH]2)cc1" ?
133 to 135 °C

Quick one: melting point of "CC(C)Oc1ccc(C2=NCCN2)cc1" ?
151 to 153 °C

---

# System: L. mexicana promastigotes
# assay_remarks: Metabolic inhibition of Leishmania mexicana promastigotes, fluorometric analysis with resazurin
# Assay type: cell-based
# condition_set: Leishmania mexicana, 48 h, read-out: L. mexicana Promastigotes IC50, promastigotes, 24 h + 24 h resazurin, 27 °C; confidence interval (Probit) in parentheses; triplicate
observed_property: IC50 (µg/mL)
Output spec: scalar in µg/mL, unitless text.

Quick one: IC50 of "CCCCCCCCCOc1ccc(-c2ncc[nH]2)cc1" ?
1.09

Quick one: IC50 of "CCCCCCOc1ccc(-c2ncc[nH]2)cc1" ?
3.4

Quick one: IC50 of "CCCCOc1ccc(C2=NCCN2)cc1" ?
2.63

Quick one: IC50 of C[C@@H]1[C@H](O)[C@@H](C)/C=C/C=C/C=C/C=C/C=C/C=C/C=C/[C@H](O[C@@H]2O[C@H](C)[C@@H](O)[C@H](N)[C@@H]2O)C[C@@H]2O[C@](O)(C[C@@H](O)C[C@@H](O)[C@H](O)CC[C@@H](O)C[C@@H](O)CC(=O)O[C@H]1C)C[C@H](O)[C@H]2C(=O)O [AmB, amphotericin, reference compound] ?
0.19

---

# Test system: T. cruzi INC-5 epimastigotes
# assay_remarks: Metabolic inhibition of Trypanosoma cruzi INC-5 epimastigotes, colorimetric analysis with MTT
# Format: cell-based
# condition_set: CC50 macrophages J774 / IC50 T. cruzi INC-5 epimastigotes
Use 2 as the dividing line for SI (CC50/IC50) T. cruzi, with the line itself on the label 1 side and lower values as label 0.

For this molecule, is measured SI (CC50/IC50) T. cruzi 2 or higher? O=C(Cn1ccnc1[N+](=O)[O-])NCc1ccccc1 [Bnz, benznidazole, reference compound]
label 1

For this molecule, is measured SI (CC50/IC50) T. cruzi 2 or higher? CCCCCCCCCOc1ccc(C2=NCCN2)cc1 [compound 31]
label 1

For this molecule, is measured SI (CC50/IC50) T. cruzi 2 or higher? CCCCCCOc1ccc(C2=NCCN2)cc1 [compound 28, 8-Hexyloxypheny-2-imidazoline]
label 0

For this molecule, is measured SI (CC50/IC50) T. cruzi 2 or higher? CC1CS(=O)(=O)CCN1/N=C/c1ccc([N+](=O)[O-])o1 (centres unmarked) [Nfx, nifurtimox, reference compound]
label 1

For this molecule, is measured SI (CC50/IC50) T. cruzi 2 or higher? CCCCCOc1ccc(C2=NCCN2)cc1 [compound 27, 8-Penthyloxyphenil-2-imidazoline]
label 0
